Recorded %Inh values for a group of molecules are listed next.
# Tested on: ULK3
# Protocol conditions: concentration: 1 μM, replicates: in singlicate; n = 1;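 further: KINOMEscan kinase panel screen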

Worked examples follow.
Molecule	%Inh
O=C(NC1CCN(c2ccnc(Nc3ccc(F)cc3)n2)C1)c1cc2ccccc2s1 (centres unmarked) [GSK1379716]	32%
Cl.Cl.NCC(NCc1ccc(-c2ccnc3[nH]ccc23)s1)c1ccccc1 (centres unmarked) [GSK1321565]	15%
CCn1c(-c2nonc2N)nc2c(C#CC(C)(C)O)ncc(OCCCCN)c21.O=C(O)C(F)(F)F.O=C(O)C(F)(F)F [GSK507274]	12%
CC(=O)N1CCN(c2ccc(Nc3nccc(-c4sc(C(C)C)nc4-c4cccc(NS(=O)(=O)c5cccc(Cl)c5)c4)n3)cn2)CC1 [GSK1660437]	62%
Cl.NC(=O)c1cccc(Nc2nccc(Nc3ccc(Oc4c(Cl)cccc4Cl)c(Cl)c3)n2)c1 [GW659009]	4%
CCCCc1nn2ncccc2c1-c1ccnc(Nc2ccc(N3CCN(C)CC3)cc2)n1 [GW684941]	17%
COc1cc(Nc2nccc(-c3c(-c4cccc(NC(=O)c5c(F)cccc5F)c4)nn4ccccc34)n2)cc(OC)c1OC [GSK323521]	18%
Cl.Cl.NCC(C(=O)Nc1cc(Br)c(-c2ccnc3[nH]ccc23)s1)c1ccccc1 (centres unmarked) [GSK1269851]	15%
O=C(Nc1cccc(Oc2ccc3nc(NC(=O)C4CC4)cn3n2)c1)c1ccccc1C(F)(F)F	1%
Fc1ccc(-c2ncn(C3CCNCC3)c2-c2ccnc(Oc3ccc(-c4ccccc4)cc3)n2)cc1 [SB-245391]	46%

Exercise: Field: %Inh (ULK3). Entry: CN(C)Cc1ccc(-c2ccc3c(Nc4ccc(Oc5ccccn5)cc4)ccnc3c2)o1 [GW567148]
Key: 5%

Exercise: Field: %Inh (ULK3). Entry: COc1cccc(-c2ccc3c(NC(=O)C4CC4)n[nH]c3n2)c1 [SB-710903]
Key: 9%

Exercise: Field: %Inh (ULK3). Entry: O=C(Nc1cccc(-c2nn3ccccc3c2-c2ccnc(Nc3cccc(F)c3)n2)c1)c1c(F)ccc(F)c1Cl [GSK357952]
Key: 13%

Exercise: Field: %Inh (ULK3). Entry: c1ccc(-c2n[nH]cc2Nc2ccnc3ccccc23)nc1 [GW694077]
Key: 8%

Exercise: Field: %Inh (ULK3). Entry: Nc1ncc(-c2cccnc2)c2scc(-c3ccc4c(c3)CCN4C(=O)Cc3ccccc3)c12 [GSK683281]
Key: 10%

Exercise: Field: %Inh (ULK3). Entry: c1ccc(-c2cnc3nccnn23)cc1 [AH20685]
Key: 0%

Exercise: Field: %Inh (ULK3). Entry: COc1ccc(CNC(=O)NC2CCN(c3ccnc(Nc4ccc(F)cc4)n3)CC2)cc1 [GSK1379788]
Key: 0%

Exercise: Field: %Inh (ULK3). Entry: C[C@@H](Oc1cc(-n2cnc3cc(-c4ccnc(NCCS(C)(=O)=O)c4)ccc32)sc1C(N)=O)c1ccccc1Cl [GSK907232]
Key: 14%

Exercise: Field: %Inh (ULK3). Entry: CSc1cccc2c(-c3ccncn3)c(-c3ccc(F)cc3)nn12 [GW514786]
Key: 3%

---

Recorded %Inh values for a group of molecules are listed next.
# Tested on: PAK3
# Protocol conditions: concentration: 1 μM, replicates: in singlicate; n = 1
Only the number, expressed in %, is required.

Worked examples follow.
Molecule	Target	%Inh [%]
O=C(Nc1cccc(-c2nn3ccccc3c2-c2ccnc(Nc3cccc(F)c3)n2)c1)c1c(F)ccc(F)c1Cl [GSK357952]	PAK3	16
Cc1occc1-c1ncc(OC[C@@H](N)Cc2c[nH]c3ccccc23)cc1-c1ccc2[nH]nc(C)c2c1.O=C(O)C(F)(F)F [GSK682037]	PAK3	32
Nc1n[nH]c2cnc(-c3ccccc3)cc12 [SB-642124]	PAK3	34

Then this molecule:
Exercise: // returns reported %Inh for input Cl.Cl.NCC(NC(=O)c1cc(-c2ccccc2)c(-c2ccnc3[nH]ccc23)s1)c1ccccc1 (stereo not shown) [GSK1321561]
Key: 30
